# assayDetails: RP, Waters CORTECS T3, 100 × 2.1 mm, 2.7 µm, 0.2 mL/min, estimated dead time 1.1 min; A: water + 0.1% formic acid, pH 3; B: methanol + 0.1% formic acid, pH 3; gradient (min/%B) 0/0 1/0 6/5 30/100 35/100 35.1/0 40/0
# assayConditions: stereoisomer not certain
readoutType: LC retention time (min)

Below, each entry is followed by its recorded LC retention time result.
INSERT INTO results (compound, numericresult) VALUES
  ('CSc1ncnc2nc[nH]c12', 12.9),
  ('NC(=O)[C@@H](N)Cc1c[nH]c2ccccc12 [L-TRYPTOPHANAMIDE]', 9.28),
  ('O=C(O)Cc1c[nH]c2ccc(O)cc12 [5-HYDROXYINDOLEACETATE]', 11.5),
  ('N[C@@H](Cc1cc(I)c(O)c(I)c1)C(=O)O', 14.1),
  ('CC1NC(=O)NC1CCCCCC(=O)O (centres undefined)', 15.7),
  ('CCOC(=O)Cc1c[nH]c2ccccc12 [ETHYL 3-INDOLEACETATE]', 21.1);

I. Nc1nc2c(ncn2C2OC3COP(=O)(O)OC3C2O)c(=O)[nH]1 (centres undefined) [GUANOSINE 3',5'-CYCLIC MONOPHOSPHATE]
II. NC(=O)C1CCCN1C(=O)C(Cc1cnc[nH]1)NC(=O)C1CCC(=O)N1 (centres undefined)
Hi team, can someone confirm which has the larger LC retention time: I or II ? Thanks. Your answer should be the label of the entry you select.
I
(I: 7.21 min, II: 1.34 min)

====

# assayDetails: HILIC, Merck SeQuant ZIC-HILIC, 150 × 2.1 mm, 5 µm, 0.75 mL/min, estimated dead time 0.44 min; A: water + 10 mM ammonium formate, pH 6; B: 5% water + 95% acetonitrile + 10 mM ammonium formate, pH 6; gradient (min/%B) 0/95 5/95 20/57 25/57 30/95 40/95
# assayConditions: stereoisomer not certain
readoutType: LC retention time (min)

INSERT INTO results (molecule, readouttype, outputunit, numericresult) VALUES
  ('O=C([O-])[C@H](O)[C@@H](O)[C@H](O)[C@H](O)CO [D-GLUCONATE]', 'LC retention time', 'min', 13);

P. Cn1cnc2c(ncn2C2OC(CO)C(O)C2O)c1=N (centres undefined)
Q. N[C@@H](Cc1cc(I)c(Oc2ccc(O)cc2)c(I)c1)C(=O)O
Hi team, can someone confirm which has the larger LC retention time: P or Q ? Thanks. Your answer should be the label of the entry you select.
Q
(Q: 8.69 min, P: 1.56 min)

I. O=C(O)CCCCC1SCC2NC(=O)NC21 (centres undefined)
II. CC(C)=CCNc1ncnc2nc[nH]c12
III. C=CC1=C(C)C(=Cc2[nH]c(Cc3[nH]c(C=C4NC(=O)C(C)=C4C=C)c(C)c3CCC(=O)O)c(CCC(=O)O)c2C)NC1=O
Sort low-to-high on LC retention time, please. # the answer lists labels in the order requested
II, III, I
(II: 0.64 min, III: 1.06 min, I: 7.34 min)

1. N[C@@H](CS(=O)(=O)O)C(=O)O
2. Nc1ncnc2nc[nH]c12
3. CSCC1OC(n2cnc3c(N)ncnc32)C(O)C1O (centres undefined)
Order the records so the highest LC retention time appears first and the lowest last. # the answer lists labels in the order requested
1, 2, 3

====

# assayDetails: RP, Waters CORTECS T3, 100 × 2.1 mm, 2.7 µm, 0.25 mL/min, estimated dead time 0.88 min; A: water + 0.1% formic acid, pH 3; B: methanol + 0.1% formic acid, pH 3; gradient (min/%B) 0/5 5/5 25/95 25.1/100 35/100 35.1/5 45/5
# assayConditions: stereoisomer not certain
Structures can show the parent of a compound that is named as a salt.
readoutType: LC retention time (min)

Below, each entry is followed by its recorded LC retention time result.
INSERT INTO assay_data (molecule, numericresult) VALUES
  ('O=C(O)CCCCCC(=O)O [6-CARBOXYHEXANOATE]', 10.9),
  ('Nc1ncnc2nc[nH]c12', 1.06),
  ('O=C(O)CCCCCCCCCO [10-HYDROXYDECANOATE]', 17.7),
  ('Cc1cc2nc3[nH]c(=O)[nH]c(=O)c3nc2cc1C', 15.5),
  ('CSCCC(NC(C)=O)C(=O)O (racemic)', 7.94);

1. Cc1cc2nc3c(=O)[nH]c(=O)nc-3n(CC(O)C(O)C(O)CO)c2cc1C (stereo not given)
2. Nc1nc2c(ncn2C2OC(COP(=O)(O)O)C(O)C2O)c(=O)[nH]1 (stereo not given) [GUANOSINE 5'-MONOPHOSPHATE]
3. O=S(=O)(O)Oc1c[nH]c2ccccc12 [INDOXYL SULFATE]
Order the records so the highest LC retention time appears first and the lowest last. # the answer lists labels in the order requested
1, 3, 2

1. O=C(O)c1cc(=O)c2ccccc2[nH]1 [4-HYDROXY-2-QUINOLINECARBOXYLIC ACID]
2. O=c1[nH]cc(CO)c(=O)[nH]1 [5-HYDROXYMETHYLURACIL]
Compare reported LC retention time values for 1 and 2 . Which is lower? Your answer should be the label of the entry you select.
2

====

# assayDetails: RP, Waters CORTECS T3, 100 × 2.1 mm, 2.7 µm, 0.1 mL/min, estimated dead time 2.2 min; A: water + 0.1% formic acid, pH 3; B: methanol + 0.1% formic acid, pH 3; gradient (min/%B) 0/0 1/0 6/5 30/100 35/100 35.1/0 40/0
# assayConditions: stereoisomer not certain
readoutType: LC retention time (min)

INSERT INTO assay_data (compound, readouttype, numericresult) VALUES
  ('CC(C)=CCNc1ncnc2nc[nH]c12', 'LC retention time', 13.4),
  ('O=C(O)c1cc(=O)c2ccccc2[nH]1 [4-HYDROXY-2-QUINOLINECARBOXYLIC ACID]', 'LC retention time', 10.7),
  ('O=C(O)c1cc(=O)c2cccc(O)c2[nH]1', 'LC retention time', 10.4),
  ('CC1NC(=O)NC1CCCCCC(=O)O (stereo not given)', 'LC retention time', 13.9),
  ('O=C(O)CCCCC1SCC2NC(=O)NC21 (stereo not given)', 'LC retention time', 12.1),
  ('NC(Cc1ccc(Oc2cc(I)c(O)c(I)c2)c(I)c1)C(=O)O (stereo not given)', 'LC retention time', 19.1),
  ('CNCCc1c[nH]c2ccccc12', 'LC retention time', 9.68),
  ('CC1C(=O)Nc2ccccc21 (stereo not given)', 'LC retention time', 15.2);

I. OCCc1c[nH]c2ccccc12
II. O=c1cccc[nH]1 [2-HYDROXYPYRIDINE]
Compare reported LC retention time values for I and II . Which is lower? Your answer should be the label of the entry you select.
II

====

# assayDetails: RP, Waters ACQUITY UPLC BEH C18, 100 × 2.1 mm, 1.7 µm, 0.1 mL/min, estimated dead time 2.2 min; A: water + 0.1% formic acid, pH 3; B: methanol + 0.1% formic acid, pH 3; gradient (min/%B) 0/5 5/5 25/100 30/100 30.1/5 35/5
# assayConditions: stereoisomer not certain
readoutType: LC retention time (min)

Below, each entry is followed by its recorded LC retention time result.
INSERT INTO measurements (compound, numericresult) VALUES
  ('O=C(O)c1cc(=O)c2ccccc2[nH]1 [4-HYDROXY-2-QUINOLINECARBOXYLIC ACID]', 14.2),
  ('CC(=O)NCCc1c[nH]c2ccc(O)cc12', 13.6),
  ('C=Cc1c(C)c2cc3[nH]c(cc4nc(cc5nc(cc1[nH]2)C(C)=C5CCC(=O)O)C(CCC(=O)O)=C4C)c(C)c3C=C', 29.5),
  ('Nc1nc2c(ncn2C2OC(CO)C(O)C2O)c(=O)[nH]1 (centres undefined)', 2.74),
  ('NCCc1c[nH]c2ccc(O)cc12', 2.74),
  ('Cc1cnc(=O)[nH]c1N', 2.71),
  ('CNCCc1c[nH]c2ccccc12', 13.3),
  ('O=C(O)C=Cc1cnc[nH]1 [UROCANATE]', 2.71),
  ('N[C@@H](Cc1ccc(O)c(O)c1)C(=O)O [3,4-DIHYDROXY-L-PHENYLALANINE]', 2.74),
  ('O=C(O)c1ccc(=O)[nH]c1 [6-HYDROXYNICOTINATE]', 6.36);

a. CC(=O)N[C@@H](Cc1ccccc1)C(=O)O
b. CC(C)(CO)C(O)C(=O)NCCC(=O)O (centres undefined)
c. Nc1ncnc2c1ncn2[C@@H]1O[C@H](CSCC[C@H]([NH3+])C(=O)[O-])[C@@H](O)[C@H]1O
d. CCCCCCCCCCCCCC(=O)OCC(O)CO (racemic) [RAC-GLYCEROL 1-MYRISTATE]
Order the records so the highest LC retention time appears first and the lowest last. # the answer lists labels in the order requested
d, a, b, c
(d: 28.2 min, a: 17.3 min, b: 11.5 min, c: 2.74 min)

A. NC(CCSSCCC(N)C(=O)O)C(=O)O (centres undefined)
B. CCCCCCSCC(NC(=O)CCC(N)C(=O)O)C(=O)NCC(=O)O (centres undefined)
Hi team, can someone confirm which has the larger LC retention time: A or B ? Thanks. Your answer should be the label of the entry you select.
B

The values you see were collected from the RepoRT retention time repository (doi:10.1016/j.jchromb.2020.122105).
